Biological target: T1, canine NGF (canine, UniProt Q29074 110-229 (pig entry), limits assumed)
T1 construct: The protein was secreted from CHO cells and purified; also called cNGF; canine β-NGF
T1 chain: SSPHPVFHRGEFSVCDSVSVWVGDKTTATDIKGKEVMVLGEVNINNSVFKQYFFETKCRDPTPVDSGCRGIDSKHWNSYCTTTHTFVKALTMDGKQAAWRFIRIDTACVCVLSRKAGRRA
Experiment: SPR (Biacore T200), 100 nM mAb on NGF chip, similarity to parent mAb
parameter: Percent Similarity Score (KD on cN)

binder: can9L12VL_G51A (antibody, V domains shown) VH: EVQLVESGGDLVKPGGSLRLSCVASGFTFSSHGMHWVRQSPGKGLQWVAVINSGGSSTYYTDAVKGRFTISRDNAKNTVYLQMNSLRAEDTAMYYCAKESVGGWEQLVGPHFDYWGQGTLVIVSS VL: QSVLTQPTSVSGSLGQRVTISCSGSTNNIGILGASWYQLFPGKAPKLLVYANGNRPSGVPDRFSGADSGDSVTLTITGLQAEDEADYYCQSFDTTLGAHVFGGGTHLTVL
reportedValue: 100%
//
binder: can9L12VL_F92A (antibody, V domains shown) VH: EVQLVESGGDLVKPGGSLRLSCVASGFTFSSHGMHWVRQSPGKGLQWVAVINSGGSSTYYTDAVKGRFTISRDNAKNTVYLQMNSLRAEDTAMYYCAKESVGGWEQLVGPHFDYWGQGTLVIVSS VL: QSVLTQPTSVSGSLGQRVTISCSGSTNNIGILGASWYQLFPGKAPKLLVYGNGNRPSGVPDRFSGADSGDSVTLTITGLQAEDEADYYCQSADTTLGAHVFGGGTHLTVL
reportedValue: 7.2%
//
binder: can9L12VH_H111A (antibody, V domains shown) VH: EVQLVESGGDLVKPGGSLRLSCVASGFTFSSHGMHWVRQSPGKGLQWVAVINSGGSSTYYTDAVKGRFTISRDNAKNTVYLQMNSLRAEDTAMYYCAKESVGGWEQLVGPAFDYWGQGTLVIVSS VL: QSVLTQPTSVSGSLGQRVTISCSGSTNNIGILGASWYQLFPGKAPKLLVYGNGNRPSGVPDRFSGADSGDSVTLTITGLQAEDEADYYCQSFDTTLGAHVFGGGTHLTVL
reportedValue: 10.1%
//
binder: can48L2VL_G92A (antibody, V domains shown, CDR scanning mutant of ZTS-842 (48L2)) VH: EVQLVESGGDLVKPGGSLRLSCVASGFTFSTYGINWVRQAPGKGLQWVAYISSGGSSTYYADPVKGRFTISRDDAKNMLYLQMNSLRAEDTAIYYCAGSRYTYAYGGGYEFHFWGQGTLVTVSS VL: QAVLNQPASVSGALGQKVTISCSGSTMDIDIFGVSWYQQLPGKAPKLLVDSDGDRPSGIPDRFSGSRSGNSGTLTITGLQAEDEADYHCQSADSTLGALAIFGGGTHVTVL
reportedValue: 93.6%
//
binder: can48L2VL_D30A (antibody, V domains shown, CDR scanning mutant of ZTS-842 (48L2)) VH: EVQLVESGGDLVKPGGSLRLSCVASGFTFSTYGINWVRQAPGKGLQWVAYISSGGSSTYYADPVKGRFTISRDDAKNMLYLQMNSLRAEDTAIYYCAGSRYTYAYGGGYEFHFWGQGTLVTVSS VL: QAVLNQPASVSGALGQKVTISCSGSTMDIAIFGVSWYQQLPGKAPKLLVDSDGDRPSGIPDRFSGSRSGNSGTLTITGLQAEDEADYHCQSGDSTLGALAIFGGGTHVTVL
reportedValue: 98.3%
